Test system: MS2 coat protein
Assay: apparent Kd, MS2 coat protein; higher = weaker binding; RNA-MaP array; theophylline 2 mM where present
Details: ligand present: theophylline; designed as: ON switch for theophylline
Binary call on apparent Kd: y from 70 nM upward, n beneath that.

[[record]]
sequence_content = "ACGACGCAUAGUGAUACCAGUAGAACAUGAGGAUCACCCAUGUCUGUGGCGCACCACCUCUGCCCUUGGCAGCACUAUGCGUCAG"
measured_on = "MS2 coat protein"
assigned_class = "n"

[[record]]
sequence_content = "AAUCUGUCGGGUGAUACCAGCCUCGGCGCAUCUCGCACCGAACAUGAGGAUCACCCAUGUGGCCCUUGGCAGCACAUGACAAAUC"
measured_on = "MS2 coat protein"
assigned_class = "y"

[[record]]
sequence_content = "UUUACAUGAGGAUCACCCAUGUGCCAUGAUACCAGACAUGAAAAUGUCCCUUGGCAGCAUGAGUGAUUCAUCCGAAAGGAUGUUU"
measured_on = "MS2 coat protein"
assigned_class = "y"

[[record]]
sequence_content = "ACAUGAGGAUCACCCAUGUCUGCCACUGAUACCAGCGGAAGCCAACGCCCUUGGCAGCAGAACAUGAGGAUCACCCAUGUAGGCA"
measured_on = "MS2 coat protein"
assigned_class = "y"

[[record]]
sequence_content = "GGAAUAACGAUUGAUACCAGCAUGUUAACAUGAGGAUCACCCAUGUUAAGGAUAACAUAAUGCCCUUGGCAGCAACGGAAACCCG"
measured_on = "MS2 coat protein"
assigned_class = "n"


----------
Test system: MS2 coat protein
Assay: apparent Kd, MS2 coat protein; higher = weaker binding; RNA-MaP array; tryptophan 2.4 mM where present
Conditions: ligand present: tryptophan; designed as: ON switch for tryptophan
Property: apparent Kd; scope: individual sequences
result type: apparent Kd (nM)

[[record]]
sequence_content = "GGCUAUACUACGGCCGCCACUGAACAUGAGGAUCACCCAUGUAAUGUUCAGAUUUUUUUUUUUUACAGGACCGGGUAGAAUUGCC"
unit_info = "nM"
reading = 104

[[record]]
sequence_content = "AGAGUCUAGUCGGCCGCCACUCAUGUCCAAUGGACAUGAGGAUCACCCAUGUACCAAAGGUACAUGAGGACCGGGACUGGACUCA"
unit_info = "nM"
reading = 7.57

[[record]]
sequence_content = "AGAGUCUAGUCGGCCGCCACUCAUGUCCAAAGGACAUGAGGAUCACCCAUGUACCAAUGGUACAUGAGGACCGGGACUGGACUCA"
unit_info = "nM"
reading = 8.33

[[record]]
sequence_content = "CGCGCGACAUGAGGAUCACCCAUGUUCCCUCGAGGACCGGUACGGCCGCCACUCGAGGACAUGAGCAUCAGCCAUGUACCGGUCA"
unit_info = "nM"
reading = 131

[[record]]
sequence_content = "AGAGUCUAGUCGGCCGCCACUCAUGUCCAAUGGACAUGAGGAUCACCCAUGUACCGAAGGUACAUGAGGACCGGGACUGGACUCA"
unit_info = "nM"
reading = 11.7

[[record]]
sequence_content = "CCUCAAUAGACGGCCGCCACUGAAACAUGAGGAUACAUGAGGAUCACCCAUGUGGGUGUGUUACGCAGGACCGGGUCAAGACCCG"
unit_info = "nM"
reading = 336

[[record]]
sequence_content = "UAAACUACACAUGAGGAUCACCCAUGUGGCCGAGGACCGGUACGGCCGCCACUCGUGUGUUAAUAAUAGAACUGCAAGGUUCUGU"
unit_info = "nM"
reading = 75.2

[[record]]
sequence_content = "UAACAUGAGGAUCACCCAUGUUUAGAAGAACGAGGACCGGUACGGCCGCCACUCGAAAAGUGGAAGAAAAGAGGGAUAGAAUGAU"
unit_info = "nM"
reading = 12.6

[[record]]
sequence_content = "AGCCACUCGAGUGAUCCUCACGAGUGGCUACGAGGACCGGUACGGCCGCCACUCGAAUUAACAUGAGGAUCACCCAUGUAAUCUC"
unit_info = "nM"
reading = 45.9

